Recorded values, source ChEMBL document CHEMBL3580617.

Task for the reader: assign each of the following compounds its reported Ratio IC50.
- Species on record: Homo sapiens
- test_method_notes: Selectivity index, ratio of IC50 for human CYP11B1 to IC50 for human CYP11B2

Request the reported Ratio IC50 associated with Cc1cncc(-c2nc3cc(F)c(F)cc3n2C2CC2)c1C
74

Next up: Fc1cncc(-c2nc3cc(F)c(F)cc3n2C2CC2)c1
93

Next up: Fc1ccc2nc(-c3cccnc3)n(CC(F)(F)F)c2c1
> 15

Next up: c1cncc(-c2nc3ccccc3n2C2CC2)c1
> 170

Next up: Fc1cccc2c1nc(-c1cccnc1)n2C1CC1
> 38

Next up: CC1(n2c(-c3cccnc3)nc3ccc(F)cc32)CC1
179

Next up: COc1cncc(-c2nc3cc(F)c(F)cc3n2C2CC2)c1
606

Next up: Fc1cc2nc(-c3cccnc3)n(C3CC3)c2cc1Cl
835

Next up: Fc1cccc2nc(-c3cccnc3)n(C3CC3)c12
> 93

Next up: N#Cc1ccc2c(c1)nc(-c1cccnc1)n2C1CC1
> 6

Next up: CC(C)n1c(-c2cccnc2)nc2ccc(F)cc21
28

Next up: CC(C)(O)c1cncc(-c2nc3cc(F)c(F)cc3n2C2CC2)c1
140

Next up: N#Cc1cc2c(cc1F)nc(-c1cccnc1)n2C1CC1
195

Next up: COc1ccc2nc(-c3cccnc3)n(C3CC3)c2c1
83

Next up: N#Cc1cc2c(cc1F)nc(-c1cncc(F)c1)n2C1CC1
225

Next up: Fc1ccc2nc(-c3cccnc3)n(Cc3ccccc3)c2c1
> 14

Next up: CCn1c(-c2cccnc2)nc2ccc(F)cc21
60

Next up: Cc1c(F)cncc1-c1nc2cc(F)c(F)cc2n1C1CC1
553

Next up: Cc1ccncc1-c1nc2cc(F)c(F)cc2n1C1CC1
71
